Target: KRAS G12V (Homo sapiens (Human), UniProt P01116+P62937, G12V)
Sequence (P01116-2 other isoform, or with tags, fused parts or gaps G12V, one chain of several): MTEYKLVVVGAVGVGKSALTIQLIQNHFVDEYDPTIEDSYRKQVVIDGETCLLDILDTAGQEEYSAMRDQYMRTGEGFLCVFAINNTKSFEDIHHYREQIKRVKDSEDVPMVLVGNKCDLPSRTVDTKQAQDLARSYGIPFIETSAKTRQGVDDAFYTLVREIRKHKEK
Experiment: Ras-Raf (BRAF RBD) disruption / FRET / MOA assay, KRAS G12V
Type: biochemical
Settings: read-out: IC50* KRAS G12V FRET data
Protocol: The purpose of this biochemical assay is to measure the ability of test compounds to facilitate ternary complex formation between a nucleotide-loaded Ras isoform and cyclophilin A; the resulting ternary complex disrupts binding to a BRAF^RBD construct, inhibiting Ras signaling through a RAF effector. Compound is present in plate wells as a 10-point 3-fold dilution series starting at a final concentration of 30 μM. […]
pIC50: −log10 of the molar value.
Please respond with reported pIC50 for every item in the list.

GET /values?readout=pIC50&item= CCn1c(-c2cccnc2COC)c2c3cc(ccc31)-c1cc(O)cc(c1)C[C@H](NC(=O)[C@H](C(C)C)N(C)C(=O)[C@H]1CCN(C(=O)C#CCN3CCN(C)CC3)C1)C(=O)N1CCC[C@H](N1)C(=O)OCC(C)(C)C2
6.00 to 7.00

// lookup pIC50 for CCn1c(-c2cccnc2COC)c2c3cc(ccc31)-c1cc(O)cc(c1)C[C@H](NC(=O)[C@H](C(C)C)N(C)C(=O)C1CN(C(=O)/C=C/CN(C)C)C1)C(=O)N1CCC[C@H](N1)C(=O)OCC(C)(C)C2
5.00 to 6.00

Using the record for C=CC(=O)N1CC[C@](F)(C(=O)N(C)[C@H](C(=O)N[C@H]2Cc3cccc(c3)-c3ccc4c(c3)c(c(-c3cccnc3[C@H](C)OC)n4CC)CC(C)(C)COC(=O)[C@@H]3CCCN(N3)C2=O)C(C)C)C1 (atropisomer, axis not shown) , report its pIC50.
5.00 to 6.00

Give its pIC50 value. Item: C=CC(=O)N1C[C@@H](C)N(C(=O)N(C)[C@H](C(=O)N[C@H]2Cc3nc(cs3)-c3ccc4c(c3)c(c(-c3cccnc3[C@H](C)OC)n4CC)CC(C)(C)COC(=O)[C@@H]3CCCN(N3)C2=O)C(C)C)C[C@@H]1C (atropisomer, axis not shown)
7.00 to 8.00

====

target: NRAS G12C (Homo sapiens (Human), UniProt P01111+P62937, G12C); assay: Ras-Raf (BRAF RBD) disruption / FRET / MOA assay, NRAS G12C; type: biochemical; details: read-out: IC50* NRAS G12C FRET data
Sequence (P01111 whole entry G12C): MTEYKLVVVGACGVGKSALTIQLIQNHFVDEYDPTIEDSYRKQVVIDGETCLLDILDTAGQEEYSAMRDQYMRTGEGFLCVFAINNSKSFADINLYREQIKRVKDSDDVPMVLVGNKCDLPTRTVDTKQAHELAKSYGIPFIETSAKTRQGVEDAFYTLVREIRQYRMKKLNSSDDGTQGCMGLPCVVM
Sequence (P62937 whole entry): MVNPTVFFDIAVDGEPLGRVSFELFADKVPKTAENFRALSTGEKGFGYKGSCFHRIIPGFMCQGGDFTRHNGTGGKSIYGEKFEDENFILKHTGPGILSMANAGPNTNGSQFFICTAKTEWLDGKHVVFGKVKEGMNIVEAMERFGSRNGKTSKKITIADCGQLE
pIC50: −log10 of the molar value.
Record form. Attribute: pIC50. Fill in for each entry.

Field: pIC50 (NRAS G12C (Homo sapiens (Human), UniProt P01111+P62937, G12C)). Entry: CCn1c(-c2cccnc2[C@H](C)OC)c2c3cc(ccc31)-c1csc(n1)C[C@H](NC(=O)[C@H](C(C)C)N1CC[C@]3(CCN(C(=O)C#CC(C)(C)N(C)C)C3)C1=O)C(=O)N1CCC[C@H](N1)C(=O)OCC(C)(C)C2 (atropisomer, axis not shown)
> 8.00

Form field - read-out: pIC50; system: NRAS G12C (Homo sapiens (Human), UniProt P01111+P62937, G12C); submitted item: C/C=C(\C)S(=O)(=O)N1CC[C@H](C(=O)N(C)[C@H](C(=O)N[C@H]2Cc3cccc(c3)-c3ccc4c(c3)c(c(-c3cccnc3[C@H](C)OC)n4CC)CC(C)(C)COC(=O)[C@@H]3CCCN(N3)C2=O)C(C)C)C1 (atropisomer, axis not shown)
< 5.00

Lab note: need pIC50 for C=CC(=O)N1CC[C@H](C(=O)N(C)[C@H](C(=O)N[C@H]2Cc3cccc(c3)-c3ccc4c(c3)c(c(-c3cccnc3[C@H](C)OC)n4CC#N)CC(C)(C)COC(=O)[C@@H]3CCCN(N3)C2=O)C(C)C)C1 on NRAS G12C (Homo sapiens (Human), UniProt P01111+P62937, G12C), anyone have it?
7.00 to 8.00

Param readout= pIC50; system= NRAS G12C (Homo sapiens (Human), UniProt P01111+P62937, G12C); entry= C=CC(=O)N(C)CCC(=O)N(C)[C@H](C(=O)N[C@H]1Cc2cc(O)cc(c2)-c2ccc3c(c2)c(c(-c2cccnc2COC)n3CC)CC(C)(C)COC(=O)[C@@H]2CCCN(N2)C1=O)C(C)C ; returns value.
6.00 to 7.00
